# System: K562 CRISPRi cells
# experimentDescription: Constant region variant library pooled growth screen, K562
# Format: cell-based, human
# appliedConditions: sgRNA constant region variants; activity relative to the original, un-modified constant region cr995
# Excerpt: We calculated relative activities for each targeting sequence:constant region pair by normalizing its phenotype to that of the targeting sequence paired with the unmodified constant region, identifying 409 constant region variants that on average conferred intermediate activity (0.1-0.9, FIG. 5B). Ten variants selected for individual evaluation also mediated intermediate levels of mRNA knockdown (FIG. 6B). […]
# Mean relative activity >= 0.006 gives class 1, anything below gives class 0

molecule	cat
cr697 (nucleic acid, listed as DNA, chemistry not fully specified) guide: GTTTAAGAGCTAAGCTGGAAACAGCATTGCAAGTTTAAATAAGGCGAGTCCGTTATCAACTTGCAAAAGTGGCACCGAGTCGGTGCT	class 1
cr740 (nucleic acid, listed as DNA, chemistry not fully specified) guide: GTTTAAGAGCTAAGCTGGAAACAGCATAGCAAGTTTAAATAAGGCTAGTCCGTTATCAACTTGAAAAAGTGCCAGCGAGTCGCTGGT	class 1
cr057 (nucleic acid, listed as DNA, chemistry not fully specified) guide: GCTCAAGAGCTAAGCTGGAAACAGCATAGCAAGTTTAAATAAGGCTAGTCCGTTATCAACTTGAAAAAGTGGCACCGAGTCGGTGCT	class 0
cr790 (nucleic acid, listed as DNA, chemistry not fully specified) guide: GTTTAAGAGCTAAGCTGGAAACAGCATAGCAACTTTAAATAAGGCTAGTCCGTTATCAACTTGAAAAAGTGGCACCAAGTTGGTGCT	class 0
cr065 (nucleic acid, listed as DNA, chemistry not fully specified) guide: GTATACGAGCTAAGCTGGAAACAGCATAGCAAGTTTAAATAAGGCTAGTCCGTTATCAACTTGAAAAAGTGGCACCGAGTCGGTGCT	class 0
cr905 (nucleic acid, listed as DNA, chemistry not fully specified) guide: GTTTAAGAGCTAAGCTGGAAACAGCATAGCAAGTTTAAATAAGGCTAGTCCGTTATCAACTTGAAAAAGTGATACCAAGTTGGTATT	class 1
cr657 (nucleic acid, listed as DNA, chemistry not fully specified) guide: GTTTAAGAGCTAAGCTGGAAACAGCATAGCAAGTTTAAATAAGGCTAGTGCGTTATCAACTTGAAAAAGTGGCACCGAGTCGGTGCT	class 0
cr206 (nucleic acid, listed as DNA, chemistry not fully specified) guide: GTTTAAGAGCTAAGCTGGAAACAGCATAGCAAGTTTAAATAAGGCTAGTCCGTTATCAACCTGAAAAAGTGGCACCGACTCGGTGCT	class 1
cr301 (nucleic acid, listed as DNA, chemistry not fully specified) guide: GTTTAAGAGCTAAGCTGGAAACAGCATAGCAACTTTAAATAAGGCTAGTCCGTTATCAACTTGAAAAAGTGGCACCGATTCGGTGCT	class 1
cr832 (nucleic acid, listed as DNA, chemistry not fully specified) guide: GTTTAAGAGCTAAGCTGGAAACAGCATAGCAAGTTTAAATAAGGCTAGTCCGTTATCAGCTTGAAAAAGCGGTGCCGAGTCGGCACT	class 1
cr880 (nucleic acid, listed as DNA, chemistry not fully specified) guide: GTTTAAGAGCTAAGCTGGAAACAGCATAGCAAGGTTAAATAAGGCTAGTCCGTTATCAACTTGAAAAAGTGGCATCGAGTCGATGCT	class 1
